- Tested on: Liver
- EXPERIMENTAL_DETAILS: Cmax in CD-1 mouse liver assessed as di- and triphosphates of (1-((2-amino-9H-purin-9-yl)methyl)cyclopropoxy)me at 30 mg/kg, po administered as single dose by LC-MS analysis
- Assay type: ADME, organism-based
- Parameters: dose 30 mg/kg, route oral
- CONDITIONS_USED: in vivo
PROPERTY: Cmax (µM)

>>> print(df.to_string())
                           smiles_data  value
0  Nc1ncc2ncn(CC3(OCP(=O)(O)O)CC3)c2n1     17

====

- Tested on: Homo sapiens
- EXPERIMENTAL_DETAILS: Tmax in fasted healthy human assessed as (1-((2-amino-9H-purin-9-yl)methyl)cyclopropoxy)me assessed as (1-((2-amino-9H-purin-9-yl)methyl)cyclopropoxy)me at 60 mg, po administered as single dose by LC-MS analysis
- Format: ADME, organism-based
- CONDITIONS_USED: in vivo
PROPERTY: Tmax (h)

>>> print(df.to_string())
                           smiles_data  target_of_assay  value
0  Nc1ncc2ncn(CC3(OCP(=O)(O)O)CC3)c2n1     Homo sapiens    1.5
